Tested on: Trypanosoma brucei rhodesiense
Assay overview: Antitrypanosomal activity against Trypanosoma brucei rhodesiense STIB 900 infected acute mouse model assessed as cured mouse at 5 mg/kg, ip daily for 4 days
Format: functional, organism-based
Set-up: dose 5 mg/kg
Calls of active or inactive are those of the source. The rule behind the calls is not given here.

Compound | Study target | Activity
COc1cc(C(=N)NC(C)C)ccc1-c1cc2cc(C(=N)NC(C)C)ccc2o1 | Trypanosoma brucei rhodesiense | inactive
COc1ccc(C2=NCCN2)cc1-c1cc2ccc(C3=NCCN3)cc2o1 | Trypanosoma brucei rhodesiense | inactive
N=C(N)c1ccc(O)c(-c2cc3cc(C(=N)N)ccc3o2)c1 | Trypanosoma brucei rhodesiense | Active
COc1ccc(C2=NCCN2)cc1-c1cc2cc(C3=NCCN3)ccc2o1 | Trypanosoma brucei rhodesiense | inactive
CC(C)NC(=N)c1ccc(-c2cc3cc(C(=N)NC(C)C)cc(O)c3o2)cc1 | Trypanosoma brucei rhodesiense | Active
N=C(N)c1cccc(-c2cc3ccc(C(=N)N)cc3o2)c1 | Trypanosoma brucei rhodesiense | inactive
COc1cc(C2=NCCN2)ccc1-c1cc2ccc(C3=NCCN3)cc2o1 | Trypanosoma brucei rhodesiense | inactive
N=C(N)c1ccc(-c2cc3ccc(C(=N)N)cc3[nH]2)cc1 [DAPI] | Trypanosoma brucei rhodesiense | inactive
N=C(N)c1ccc(-c2cc3ccc(C(=N)N)cc3o2)cc1 | Trypanosoma brucei rhodesiense | Active
Oc1cc(C2=NCCN2)ccc1-c1cc2ccc(C3=NCCN3)cc2o1 | Trypanosoma brucei rhodesiense | inactive
Oc1cc(C2=NCCN2)ccc1-c1cc2cc(C3=NCCN3)cc(O)c2o1 | Trypanosoma brucei rhodesiense | inactive
N=C(N)c1ccc(-c2cc3cc(C(=N)N)cc(O)c3o2)cc1 | Trypanosoma brucei rhodesiense | Active
COc1cc(C(=N)N)cc2cc(-c3ccc(C(=N)N)cc3)oc12 | Trypanosoma brucei rhodesiense | Active
Oc1ccc(C2=NCCN2)cc1-c1cc2ccc(C3=NCCN3)cc2o1 | Trypanosoma brucei rhodesiense | inactive
c1ccc2[nH]c(-c3ccc4oc(-c5ccc(C6=NCCN6)cc5)cc4c3)nc2c1 | Trypanosoma brucei rhodesiense | inactive
c1ccc2[nH]c(-c3ccc(-c4cc5cc(-c6nc7ccccc7[nH]6)ccc5o4)cc3)nc2c1 | Trypanosoma brucei rhodesiense | inactive
CC(C)NC(=N)c1ccc(-c2cc3cc(C(=N)NC(C)C)cc(O)c3o2)c(O)c1 | Trypanosoma brucei rhodesiense | Active

###

Listing: selectivity ratio of selected compounds
Assay overview: Selectivity index, ratio of IC50 for rat L6 cells to IC50 for Trypanosoma brucei rhodesiense STIB 900
Assay type: toxicity, cell-based
Test parameters: read-out: Ratio IC50
Reported endpoint: selectivity ratio

Entry smiles | Measurement
CC(C)NC(=N)c1cccc(-c2cc3cc(C(=N)NC(C)C)ccc3o2)c1 | > 421
Oc1cc(C2=NCCN2)cc2cc(-c3ccc(C4=NCCN4)cc3)oc12 | > 50800
CC(C)NC(=N)c1ccc(-c2cc3cc(C(=N)NC(C)C)ccc3o2)cc1 | > 1580
CC(C)NC(=N)c1ccc(-c2cc3ccc(C(=N)NC(C)C)cc3o2)cc1 | > 1340
CC(C)NC(=N)c1ccc(O)c(-c2cc3ccc(C(=N)NC(C)C)cc3o2)c1 | > 37
Oc1cc(C2=NCCN2)ccc1-c1cc2ccc(C3=NCCN3)cc2o1 | > 17500
COc1cc(C(=N)NC(C)C)ccc1-c1cc2ccc(C(=N)NC(C)C)cc2o1 | > 3350
Oc1ccc(C2=NCCN2)cc1-c1cc2cc(C3=NCCN3)ccc2o1 | > 877
Oc1cc(C2=NCCN2)ccc1-c1cc2cc(C3=NCCN3)cc(O)c2o1 | > 19300
COc1ccc(C(=N)NC(C)C)cc1-c1cc2cc(C(=N)NC(C)C)ccc2o1 | > 1160
COc1cc(C(=N)NC(C)C)cc2cc(-c3ccc(C(=N)NC(C)C)cc3)oc12 | > 2110
CC(C)NC(=N)c1ccc(-c2cc3ccc(C(=N)NC(C)C)cc3o2)c(O)c1 | > 20300
CC(C)NC(=N)c1ccc(-c2cc3cc(C(=N)NC(C)C)cc(O)c3o2)cc1 | > 6610
CC(C)NC(=N)c1ccc(-c2cc3cc(C(=N)NC(C)C)ccc3o2)c(O)c1 | > 8710
CC(C)NC(=N)c1ccc(-c2cc3cc(C(=N)NC(C)C)cc(O)c3o2)c(O)c1 | > 7780
Oc1ccc(C2=NCCN2)cc1-c1cc2ccc(C3=NCCN3)cc2o1 | > 2280
CC(C)NC(=N)c1ccc(O)c(-c2cc3cc(C(=N)NC(C)C)ccc3o2)c1 | > 179
N=C(N)c1ccc(-c2cc3ccc(C(=N)N)cc3o2)c(O)c1 | > 55200
COc1ccc(C(=N)NC(C)C)cc1-c1cc2ccc(C(=N)NC(C)C)cc2o1 | > 188
N=C(N)c1ccc(O)c(-c2cc3cc(C(=N)N)ccc3o2)c1 | > 43400

###

Assay overview: Selectivity index, ratio of IC50 for rat L6 cells to IC50 for Leishmania donovani MHOM/SD/62/1S-CL2D
Format: toxicity, cell-based
Test parameters: read-out: Ratio IC50

Entry smiles | selectivity ratio
COc1ccc(C2=NCCN2)cc1-c1cc2cc(C3=NCCN3)ccc2o1 | < 0.6
CC(C)NC(=N)c1ccc(-c2cc3cc(C(=N)NC(C)C)ccc3o2)c(O)c1 | > 101
c1c[nH]c(-c2ccc(-c3cc4cc(-c5ncc[nH]5)ccc4o3)cc2)n1 | < 0.03
Oc1cc(C2=NCCN2)ccc1-c1cc2cc(C3=NCCN3)cc(O)c2o1 | > 12
CC(C)NC(=N)c1ccc(-c2cc3cc(C(=N)NC(C)C)cc(O)c3o2)cc1 | > 9
CC(C)NC(=N)c1ccc(-c2cc3cc(C(=N)NC(C)C)cc(O)c3o2)c(O)c1 | > 4

###

Listing: selectivity ratio of selected compounds
Assay overview: Selectivity index, ratio of IC50 for rat L6 cells to IC50 for chloroquine-resistant Plasmodium falciparum K1
Type: toxicity, cell-based
Test parameters: read-out: Ratio IC50

Entry smiles | selectivity ratio
COc1cc(C(=N)NC(C)C)cc2cc(-c3ccc(C(=N)NC(C)C)cc3)oc12 | > 3960
Oc1cc(C2=NCCN2)ccc1-c1cc2ccc(C3=NCCN3)cc2o1 | > 1970
CC(C)NC(=N)c1ccc(-c2cc3cc(C(=N)NC(C)C)cc(O)c3o2)cc1 | > 3300

###

Assay overview: Selectivity index, ratio of IC50 for rat L6 cells to IC50 for chloroquine-resistant Plasmodium falciparum K1
Format: toxicity, cell-based
Test parameters: read-out: Ratio IC50
Listing: selectivity ratio of selected molecules

Entry smiles | selectivity ratio
CC(C)NC(=N)c1cccc(-c2cc3cc(C(=N)NC(C)C)ccc3o2)c1 | > 601
Oc1ccc(C2=NCCN2)cc1-c1cc2ccc(C3=NCCN3)cc2o1 | > 1840
COc1ccc(C(=N)NC(C)C)cc1-c1cc2cc(C(=N)NC(C)C)ccc2o1 | > 716
CC(C)NC(=N)c1ccc(-c2cc3ccc(C(=N)NC(C)C)cc3o2)c(O)c1 | > 307
N=C(N)c1ccc(-c2cc3ccc(C(=N)N)cc3o2)c(O)c1 | > 3160
COc1cc(C(=N)N)cc2cc(-c3ccc(C(=N)N)cc3)oc12 | 5120
COc1cc(C(=N)NC(C)C)ccc1-c1cc2cc(C(=N)NC(C)C)ccc2o1 | 4900
COc1ccc(C(=N)NC(C)C)cc1-c1cc2ccc(C(=N)NC(C)C)cc2o1 | > 597
CC(C)NC(=N)c1ccc(O)c(-c2cc3cc(C(=N)NC(C)C)ccc3o2)c1 | > 349
CC(C)NC(=N)c1cccc(-c2cc3ccc(C(=N)NC(C)C)cc3o2)c1 | > 3390
N=C(N)c1ccc(O)c(-c2cc3cc(C(=N)N)ccc3o2)c1 | > 274
CC(C)NC(=N)c1ccc(-c2cc3cc(C(=N)NC(C)C)cc(O)c3o2)c(O)c1 | > 577
CC(C)NC(=N)c1ccc(-c2cc3cc(C(=N)NC(C)C)ccc3o2)cc1 | > 2710
CC(C)NC(=N)c1ccc(O)c(-c2cc3ccc(C(=N)NC(C)C)cc3o2)c1 | > 294
COc1cc(C(=N)NC(C)C)ccc1-c1cc2ccc(C(=N)NC(C)C)cc2o1 | > 879

###

Assay overview: Selectivity index, ratio of IC50 for rat L6 cells to IC50 for Leishmania donovani MHOM/SD/62/1S-CL2D
Type: toxicity, cell-based
Test parameters: read-out: Ratio IC50
Listing: selectivity ratio of selected compounds

Entry smiles | selectivity ratio
CC(C)NC(=N)c1cccc(-c2cc3ccc(C(=N)NC(C)C)cc3o2)c1 | > 8
Oc1ccc(C2=NCCN2)cc1-c1cc2ccc(C3=NCCN3)cc2o1 | > 6
COc1cc(C(=N)NC(C)C)ccc1-c1cc2ccc(C(=N)NC(C)C)cc2o1 | > 6

###

Listing: selectivity ratio of selected compounds
Assay overview: Selectivity index, ratio of IC50 for rat L6 cells to IC50 for Leishmania donovani MHOM/SD/62/1S-CL2D
Assay type: toxicity, cell-based
Test parameters: read-out: Ratio IC50
Reported endpoint: selectivity ratio

Entry smiles | Reported endpoint | Measurement
N=C(N)c1cccc(-c2cc3ccc(C(=N)N)cc3o2)c1 | selectivity ratio | 9
CC(C)NC(=N)c1ccc(-c2cc3ccc(C(=N)NC(C)C)cc3o2)c(O)c1 | selectivity ratio | > 5
N=C(N)c1ccc(-c2cc3ccc(C(=N)N)cc3o2)c(O)c1 | selectivity ratio | > 8

These data points were gathered from ChEMBL document CHEMBL1142519.
